- Assayed System: T1, human MSLN-R3-his protein (human, UniProt Q13421 487-598)
- T1 construct: Region 3 of human mesothelin, made in HEK293E cells, His-tagged; also called human MSLN-R3 protein; hMSLN-R3-his; not shown: His tag
- T1 sequence (Q13421 495-606): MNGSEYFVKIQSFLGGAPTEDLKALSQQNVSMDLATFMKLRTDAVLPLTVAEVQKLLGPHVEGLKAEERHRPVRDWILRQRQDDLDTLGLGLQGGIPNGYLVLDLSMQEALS
- Assay Comment: ELISA on coated MSLN-R3; antibody 1 nM
Measurement Type: OD450 (OD450)
Write the answer as a number in OD450, unit excluded.

Briefly, OD450 measured for S009-F8-12.13 (antibody, human IgG1, kappa, V domains shown) VH: QVQLQQPGAELVKPGASVKLSCKASGYTFTSYWMHWVKQRPGQGLEWIGMIHPNSGSTNYNEKFKSKATLTVDKSSSTAYMQLSSLTSEDSAVYYCARRTPIITLVGHWYFDVWGTGTTVTVSS VL: DIVMTQSHKFMSTSVGDRVSITCKASQDVGTAVAWYQQKPGQSPKLLIYWASTRHTGVPDRFTGSGSGTDFTLTISNVQSEDLADYFCQQYSSYPLTFGAGTKLELKR : 0.06

Briefly, OD450 measured for S009-F8-8.22 (antibody, human IgG1, kappa, V domains shown) VH: EVQLQQSGPELVKPGASVKMSCKASGYTFTDYIIHWVKQSHGKSLEWIAYIFPNNGGTGYNQKFRGKATLTVNKSSSTAYMELRSLTSEDSAVYYCARWRLRQYFDVWGTGTTVTVSS VL: DIVMTQSQKFMSTIVGDRVSITCKASQNVGTAVAWYQQKPGQSPKLLIYSASNRYTGVPDRFTGSGSGTDFTLTISNMQSEDLADYFCQQYSSYPLTFGGGTKLEIKR : 0.05
